System: SK-MEL-2 melanoma
Below, each entry is listed alongside its reported GI50.

Check out these entries, answers already filled in.
[[record]]
structure_smiles = "O=C(CI)OCC(COC(=O)CI)OC(=O)CI"
endpoint_label = "GI50"
measured = "10300 nM"

[[record]]
structure_smiles = "Nc1ncc(-c2ccc3ncnc(N4CCc5ccc(Cl)cc54)c3c2)cn1"
endpoint_label = "GI50"
measured = "1560 nM"

[[record]]
structure_smiles = "COc1cc2c(cc1OC)[C@@H]1C(=O)c3cc4c(cc3[C@@H]1N(CCN(C)C)C2=O)OCO4"
endpoint_label = "GI50"
measured = "11100 nM"

[[record]]
structure_smiles = "CCOC(=O)c1ccc2c(c1)nc(-c1ccc(Cl)cc1)n2-c1cc(C(C)(C)C)[nH]n1"
endpoint_label = "GI50"
measured = "1930 nM"


Give GI50 (SK-MEL-2 melanoma) of the following compound: `c1ccc(CSCCNCCN(CCNCCSCc2ccccc2)CCNCCSCc2ccccc2)cc1`
1600 nM

Sourced from PubChem BioAssay (NCI)
